Entries and their measured pKd follow.
Molecular target: HLA-B*57:01
Assay: IEDB peptide-MHC binding, purified MHC/direct/fluorescence; filed as Kd, often an IC50 or EC50 that approximates it; bounds were set here for any values at or beyond the usual limits of such assays
Conditions: source organism: Entamoeba histolytica HM-1:IMSS
pKd: −log10 of the molar value.
ASSAY ENDPOINT: pKd

| MONOMER SEQUENCE | ASSAY ENDPOINT | QUALIFIER SIGN | NUMERIC READOUT |
| --- | --- | --- | --- |
| ISTLPTEQF | pKd | = | 6.62 |
| VKINIFPLY | pKd | ≤ | 4.70 |

====

Target: HLA-B*07:02
Test: IEDB peptide-MHC binding, purified MHC/competitive/fluorescence; filed as Kd, often an IC50 or EC50 that approximates it; bounds were set here for any values at or beyond the usual limits of such assays
Conditions: source organism: Shigella boydii CDC 3083-94

| MONOMER SEQUENCE | Kd |
| --- | --- |
| TPAVCGPVI | 23.8 nM |

====

Entries and their measured IC50 follow.
Molecular target: HLA-A*03:01
Assay: IEDB peptide-MHC binding, purified MHC/competitive/fluorescence; bounds were set here for any values at or beyond the usual limits of such assays
Details: source organism: Variola virus

| MONOMER SEQUENCE | ASSAYED SYSTEM | MEASURE UNIT | QUALIFIER SIGN | IC50 |
| --- | --- | --- | --- | --- |
| KVFLPNPAF | HLA-A*03:01 | µM | = | 64.8 |
| AVARKHHTK | HLA-A*03:01 | µM | = | 1.46 |
| KSMRDQRKG | HLA-A*03:01 | µM | ≥ | 119 |

====

Target: HLA-B*57:01
Assay: IEDB peptide-MHC binding, purified MHC/direct/fluorescence; filed as Kd, often an IC50 or EC50 that approximates it; bounds were set here for any values at or beyond the usual limits of such assays
Conditions: source organism: Burkholderia mallei
Entries and their measured Kd follow.
ASSAY ENDPOINT: Kd

| MONOMER SEQUENCE | RESULT |
| --- | --- |
| APAKKAAAK | ≥ 20 µM |
| AVAVARVAA | ≥ 20 µM |
| RAMDTYHRW | 0.0488 µM |

====

Molecular target: HLA-A*01:01
Test: IEDB peptide-MHC binding, purified MHC/competitive/radioactivity; filed as Kd, often an IC50 or EC50 that approximates it; bounds were set here for any values at or beyond the usual limits of such assays
Settings: source organism: Mammarenavirus caliense
pKd: −log10 of the molar value.
ASSAY ENDPOINT: pKd

| MONOMER SEQUENCE | NUMERIC READOUT |
| --- | --- |
| SEFKSRFFIW | 5.66 |

====

Molecular target: HLA-A*26:01
Assay: IEDB peptide-MHC binding, purified MHC/direct/fluorescence; filed as Kd, often an IC50 or EC50 that approximates it; bounds were set here for any values at or beyond the usual limits of such assays
Details: source organism: Giardia lamblia ATCC 50803

| MONOMER SEQUENCE | ASSAYED SYSTEM | Kd |
| --- | --- | --- |
| QLKQRDALF | HLA-A*26:01 | ≥ 20 µM |
| HSSVAGGLW | HLA-A*26:01 | ≥ 20 µM |
| ITSGHSWAY | HLA-A*26:01 | 0.028 µM |
| IPRQWHPFA | HLA-A*26:01 | ≥ 20 µM |

Values from the Immune Epitope Database (IEDB)
